Each recorded value in this set is attributed to paper PMC12647645.

ASSAYED_TARGET: E. coli gyrase (Escherichia coli, UniProt P0AES4+P0AES6)
PROTOCOL_SUMMARY: biochemical
pIC50: −log10 of the molar value.

{"columns": ["TEST_SMILES", "pIC50"],
 "data": [
  ["Cn1c(=O)ccc2ccc(F)c(CCNC[C@H]3CN(c4cnc5c(n4)NC(=O)CO5)C(=O)O3)c21", 8.40],
  ["C[C@H]1COc2c(N3CCN(C)CC3)c(F)cc3c(=O)c(C(=O)O)cn1c23", 6.41],
  ["C[C@@H]1CN2c3c(cc4c(N5C(=O)OC[C@@H]5C)noc4c3F)CC3(C(=O)NC(=O)NC3=O)[C@H]2[C@H](C)O1", 6.10]
]}

====

Below is a list of entries, each paired with its recorded MIC value.
Tested on: E. coli MG1655 GyrA R121K, ParC WT
PROTOCOL_SUMMARY: microbe, parasite or virus in culture
Type: cell-based
APPLIED_CONDITIONS: Escherichia coli
ASSAY_READOUT: MIC

{"columns": ["COMPOUND", "ASSAYED_TARGET", "VAL"],
 "data": [
  ["O=c1ccc2ncc(=O)n3c2n1C[C@H]3CN1CCC(NCc2cc3c(cn2)OCCC3)CC1 [Gepotidacin, reference compound]", "E. coli MG1655 GyrA R121K, ParC WT", "0.13 µg/mL"],
  ["CC1(C)S[C@@H]2[C@H](NC(=O)[C@H](N)c3ccccc3)C(=O)N2[C@H]1C(=O)O", "E. coli MG1655 GyrA R121K, ParC WT", "4.2 µg/mL"],
  ["C[C@H]1COc2c(N3CCN(C)CC3)c(F)cc3c(=O)c(C(=O)O)cn1c23", "E. coli MG1655 GyrA R121K, ParC WT", "0.08 µg/mL"],
  ["Cn1c(=O)ccc2ccc(F)c(CCNC[C@H]3CN(c4cnc5c(n4)NC(=O)CO5)C(=O)O3)c21", "E. coli MG1655 GyrA R121K, ParC WT", "0.01 µg/mL"]
]}

====

ASSAYED_TARGET: S. aureus gyrase (Staphylococcus aureus, UniProt P0A0K8+P20831)
PROTOCOL_SUMMARY: biochemical
APPLIED_CONDITIONS: Supplementary Fig 1G

{"columns": ["TEST_SMILES", "IC50 (nM)"],
 "data": [
  ["Cn1c(=O)ccc2ccc(F)c(CCNC[C@H]3CN(c4cnc5c(n4)NC(=O)CO5)C(=O)O3)c21", 9]
]}

====

System: A. baumannii ATCC 19606 resistant mutant colonies (mutant 1-5)
PROTOCOL_SUMMARY: microbe, parasite or virus in culture
Assay type: cell-based
APPLIED_CONDITIONS: Acinetobacter baumannii, ATCC19606, read-out: MIC 90 in (μg/mL), resistant mutant colony 3

{"columns": ["TEST_SMILES", "ASSAYED_TARGET", "MIC90, µg/mL"],
 "data": [
  ["C[C@@H](O)[C@H]1C(=O)N2C(C(=O)O)=C(S[C@@H]3CN[C@H](C(=O)N(C)C)C3)[C@H](C)[C@H]12", "A. baumannii ATCC 19606 resistant mutant colonies (mutant 1-5)", 0.15],
  ["CN(C)[C@@H]1C(O)=C(C(N)=O)C(=O)[C@@]2(O)C(O)=C3C(=O)c4c(O)cccc4[C@@](C)(O)[C@H]3C[C@@H]12", "A. baumannii ATCC 19606 resistant mutant colonies (mutant 1-5)", 0.6],
  ["CC[C@H]1OC(=O)[C@@](C)(F)C(=O)[C@H](C)[C@@H](O[C@@H]2O[C@H](C)C[C@H](N(C)C)[C@H]2O)[C@](C)(OC)C[C@@H](C)C(=O)[C@H](C)[C@H]2N(CCCCn3cc(-c4cccc(N)c4)nn3)C(=O)O[C@]12C", "A. baumannii ATCC 19606 resistant mutant colonies (mutant 1-5)", 2.5],
  ["Cn1c(=O)ccc2ccc(F)c(CCNC[C@H]3CN(c4cnc5c(n4)NC(=O)CO5)C(=O)O3)c21", "A. baumannii ATCC 19606 resistant mutant colonies (mutant 1-5)", 0.07]
]}
